# protocol.text: Rat PK&BBB (pharmacokinetics and brain penetration)
# Assay type: in vivo, SD rats
# stated.conditions: Sprague-Dawley, rat, brain, po, 30 mg/kg, PO 30 mg/kg, 2 h after administration, read-out: Brain concentration
property: concentration at 2 h (ng/g)
Lab book: enter the figure in ng/g, no units written.

Input: Returns the measured concentration at 2 h for the input compound. Input: CC(C)(O)COc1ccc(F)c(-c2ccnc(N3CCC(C(=O)N4N=CC[C@H]4c4cc(F)cc(F)c4)CC3)c2)c1 (racemic)
Output: 1970

Input: Requested read-out: concentration at 2 h. Entry: O=C(C1CCN(c2cc(-c3cc(OCCCO)ccc3F)ccn2)CC1)N1N=CCC1c1cc(F)cc(F)c1 (racemic)
Output: 397

Input: Using the record for O=C(C1CCN(c2cc(-c3cc(OCCCO)ccc3F)ccn2)CC1)N1N=CC[C@H]1c1cc(F)cc(F)c1 (racemic) , report its concentration at 2 h.
Output: 309

###

# protocol.text: Mouse PK&BBB (pharmacokinetics and brain penetration)
# Format: in vivo, CD-1 mice
# stated.conditions: CD-1, mouse, whole blood, iv, 2 mg/kg, IV 2 mg/kg, 0.25 hr, read-out: Blood drug concentration
property: concentration at 0.25 h (ng/mL)
Kindly provide the numeric value in ng/mL only, without the unit symbol.

Input: Which value of concentration at 0.25 h has been reported for O=C(C1CCN(c2cc(-c3cc(OCCCO)ccc3F)ccn2)CC1)N1N=CC[C@H]1c1cc(F)cc(F)c1 (racemic) [Example 40] in the records?
Output: 323

###

# protocol.text: Mouse PK&BBB (pharmacokinetics and brain penetration)
# Format: in vivo, CD-1 mice
# stated.conditions: CD-1, mouse, whole blood, iv, 2 mg/kg, IV 2 mg/kg, 0.5 hr, read-out: Blood drug concentration
property: concentration at 0.5 h (ng/mL)
Field format: number, assumed ng/mL, no unit text.

Input: Tell me the measured concentration at 0.5 h of O=C(C1CCN(c2cc(-c3cc(OCCCO)ccc3F)ccn2)CC1)N1N=CC[C@H]1c1cc(F)cc(F)c1 (racemic) , please.
Output: 150

###

Provide the reported concentration at 0.083 hr of each item.
# protocol.text: Beagle PK (pharmacokinetics)
# Format: in vivo, beagle dogs
# stated.conditions: whole blood; Beagle dog, IV 1 mg/kg, 0.083 hr; read-out: Blood drug concentration
Hi! Could you send only the number? It should be in ng/mL, unit omitted.

Input: Given the entry CC(C)(O)COc1ccc(F)c(-c2ccnc(N3CCC(C(=O)N4N=CC[C@H]4c4cc(F)cc(F)c4)CC3)c2)c1 (racemic) [Example 42] , report its measured concentration at 0.083 hr.
Output: 535

Input: May I ask what concentration at 0.083 hr has been recorded for O=C(C1CCN(c2cc(-c3cc(OCCCO)ccc3F)ccn2)CC1)N1N=CCC1c1cc(F)cc(F)c1 (racemic) [Example 18] ?
Output: 843

###

Task for the reader: assign each of the following compounds its reported concentration at 2 h.
# protocol.text: Rat PK&BBB (pharmacokinetics and brain penetration)
# Type: in vivo, SD rats
# stated.conditions: Sprague-Dawley, rat, whole blood, iv, 3 mg/kg, IV 3 mg/kg, 2 hr, read-out: Blood drug concentration
Report the figure in ng/mL without appending any unit label.

Input: Data request, read-out concentration at 2 h, for CC(C)(O)COc1ccc(F)c(-c2ccnc(N3CCC(C(=O)N4N=CC[C@H]4c4cc(F)cc(F)c4)CC3)c2)c1 (racemic) [Example 42]
Output: 303

Input: Endpoint output: concentration at 2 h of O=C(C1CCN(c2cc(-c3cc(OCCCO)ccc3F)ccn2)CC1)N1N=CCC1c1cc(F)cc(F)c1 (racemic) [Example 18] . Value?
Output: 25.5

Input: Looking for the measured concentration at 2 h of O=C(C1CCN(c2cc(-c3cc(OCCCO)ccc3F)ccn2)CC1)N1N=CC[C@H]1c1cc(F)cc(F)c1 (racemic) [Example 40] , can you help?
Output: 61.9
